settings: in water, 320.56 K
MEASURED_PROPERTY: solubility (mole fraction)

>>> df
                    line_notation           measured_property  obs_value
0  O=C(O)c1cc(C(=O)O)cc(C(=O)O)c1  solubility (mole fraction)    0.00044
